# Test system: A498
# TEST DETAILS: NCI tumour cell line growth inhibition, 48 h
The source made the active and inactive calls. Cut-off read from the data, not from the text of the source: active = GI50 up to about 1.1 µM and inactive = higher.
MEASURED PROPERTY: GI50

query: Value lookup for GI50; key = `O=C(O)CCC(=O)C(=O)O`
result: > 100 µM (inactive)

query: Value lookup for GI50; key = COC1=C(C)C(=O)C2=C(C1=O)C1C3CC4=C(C(=O)C(OC)=C(C)C4=O)C(CNC(=O)C(C)O)N3C(C#N)C(C2)N1C (centres undefined)
result: 0.0107 µM (active)

query: Value lookup for GI50; key = `Cc1cc(N(CCC#N)CCC#N)ccc1C(/N=N/c1ccc(C(=O)O)cc1)=N\NC(=O)c1ccccc1`
result: 22.3 µM (inactive)

query: Value lookup for GI50; key = `COC(=O)c1c(O)ccc2c1c1c(n2Cc2ccccc2OC)C(=O)c2ccccc2C1=O`
result: 40 µM (inactive)

---

# Test system: SNB-19
# TEST DETAILS: NCI tumour cell line growth inhibition, 48 h
Active and inactive are the calls of the source. No stated cut-off is given here; in the data, active = GI50 up to about 1.1 µM and inactive = higher.
Returns: one label drawn from active, inactive

[[record]]
compound = "CSc1cnc2ccccc2c1Sc1cn(C)c2ccccc2c1=O"
cat = "inactive"

[[record]]
compound = "CCOC(=O)C1=C(C)N(C2OC(COC(=O)c3ccccc3)C(OC(=O)c3ccccc3)C2OC(=O)c2ccccc2)C(=S)NC1c1ccccc1 (stereo unspecified)"
cat = "inactive"

[[record]]
compound = "NC(=O)c1csc(C2CCC(CO)O2)n1 (stereo unspecified)"
cat = "inactive"

[[record]]
compound = "NCCCCNCCCN1CCOC1=O"
cat = "inactive"

[[record]]
compound = "Cc1cc(OC(=O)Nc2ccc(Cl)cc2)ccc1C(=S)Nc1ccccc1"
cat = "inactive"

[[record]]
compound = "O=NN1C(c2ccccc2)CCCC1c1ccccc1 (stereo unspecified)"
cat = "inactive"

[[record]]
compound = "COC(=O)C1=CN(C2CCCCC2)C2(c3ccccc3)c3ccccc3C(=O)OC(=O)C12 (stereo unspecified)"
cat = "inactive"

[[record]]
compound = "CC[C@]1(Cc2ccc(OC)c(OC)c2)C=[N+]([O-])O[C@H](OC2CCCCC2c2ccccc2)[C@@H]1OC(C)=O (stereo partly specified)"
cat = "inactive"

[[record]]
compound = "O=S(=O)(O)c1ccc(/N=N\\c2ccc(/N=N/c3ccc(/C=C/c4ccc(/N=[N+](\\[O-])c5ccc(/C=C/c6ccc(/N=N/c7ccc(/N=N/c8ccc(S(=O)(=O)O)cc8)c8ccccc78)cc6S(=O)(=O)O)c(S(=O)(=O)O)c5)cc4S(=O)(=O)O)c(S(=O)(=O)O)c3)c3ccccc23)cc1"
cat = "inactive"

[[record]]
compound = "CC[C@]12CCCN3CCc4c(n(c5ccccc45)C(=O)C1)[C@@H]32"
cat = "inactive"


query: Call for entry `CN(C)c1ccc(/C(Br)=C2\OC(=O)c3ccccc32)cc1` :
result: inactive

query: Call for entry CC1CC(=O)C(C(O)CC2CC(=O)N(c3ccccc3)C(=O)C2)C(C)C1 (stereo unspecified) :
result: inactive

query: Call for entry `CCc1n[nH]c(=O)n1CCCCCCCCCCCCn1c(CC)n[nH]c1=O` :
result: inactive

query: Call for entry `COc1cc(C2C(C(=O)Nc3ccc(Cl)c(Cl)c3)=C(C)NC(C)=C2C(=O)Nc2ccc(Cl)c(Cl)c2)ccc1O` :
result: inactive

query: Call for entry C=C1C(=O)OC2/C=C(/C)C(OC(C)=O)CC(O)/C(C)=C\C(OC(=O)/C(C)=C\C)C12 (stereo unspecified) :
result: inactive

---

# Tested on: NCI-H522
# TEST DETAILS: NCI tumour cell line growth inhibition, 48 h
Active and inactive are the calls of the source. No stated cut-off is given here; in the data, active = GI50 up to about 1.1 µM and inactive = higher.
Returns: one label drawn from active, inactive

Worked set:
[[record]]
molecule = "O=C1C2CC=CCC2C(=O)N1n1c(-c2ccccc2)n[nH]c1=O (stereo unspecified)"
target_of_assay = "NCI-H522"
cat = "inactive"

[[record]]
molecule = "CCN(CC)CCCn1c(=O)c2ccccc2n2c3c(=O)n(C)c(=O)n(C)c3nc12"
target_of_assay = "NCI-H522"
cat = "inactive"

[[record]]
molecule = "Cc1ccc(S(=O)(=O)NCc2cccc([N+](=O)[O-])c2)cc1"
target_of_assay = "NCI-H522"
cat = "inactive"

[[record]]
molecule = "COc1ccc(C(=O)N/N=C2\\C(=O)c3c(C)cc(C)cc3CC2(C)C)cc1"
target_of_assay = "NCI-H522"
cat = "inactive"

[[record]]
molecule = "CNC(=S)N/N=C/c1cccc(C)n1"
target_of_assay = "NCI-H522"
cat = "inactive"


query: Call for entry COc1cc(C2c3cc4c(cc3OC(N3CCCC3)C2C)OCO4)cc(OC)c1OC (stereo unspecified) :
result: active

---

# Test system: BT-549
# TEST DETAILS: NCI tumour cell line growth inhibition, 48 h
The source made the active and inactive calls. No stated cut-off is given here; in the data, active = GI50 up to about 1.1 µM and inactive = higher.
MEASURED PROPERTY: GI50

// solved cases for GI50 follow
[[record]]
compound = "Nc1cccnc1NCC1(CO)CCCC1"
endpoint_value = "> 100 µM (inactive)"

[[record]]
compound = "COc1ccc2c(c1)C(N)CC2=O (stereo not drawn)"
endpoint_value = "> 100 µM (inactive)"

[[record]]
compound = "Cc1ccc2nc3n(c2c1)C(c1c(F)cccc1F)SC3 (stereo not drawn)"
endpoint_value = "> 100 µM (inactive)"


query: Value lookup for GI50; key = `Nc1nnc(-c2ccco2)c(-c2ccco2)n1`
result: > 100 µM (inactive)

query: Value lookup for GI50; key = COC(=O)C1=C(C(=O)OC)C2(C)CCC(=O)C1O2 (stereo not drawn)
result: > 10 µM (inactive)

query: Value lookup for GI50; key = c1ccc2nn(C3CCCCO3)nc2c1 (stereo not drawn)
result: > 100 µM (inactive)

---

# Tested on: SW-620
# TEST DETAILS: NCI tumour cell line growth inhibition, 48 h
Active and inactive are the calls of the source. No stated cut-off is given here; in the data, active = GI50 up to about 1.1 µM and inactive = higher.
Returns: one label drawn from active, inactive

Worked set:
[[record]]
compound = "C=C(C)C1CC2=C(O1)C(=O)c1cccc(O)c1C2=O (stereo not given)"
cat = "active"

[[record]]
compound = "COc1cc(C2c3cc4c(cc3OC(N3CCCC3)C2C)OCO4)cc(OC)c1OC (stereo not given)"
cat = "active"


query: Call for entry CC(C)(C)c1cc(C(O)(C(F)(F)F)C(F)(F)F)c2c(c1)C(C(F)(F)F)(C(F)(F)F)OC(C(C)(C)C)N2 (stereo not given) :
result: inactive

query: Call for entry `CN(C)CCn1c(=O)nc2c3c(c([N+](=O)[O-])ccc31)Nc1ccc(O)cc1-2` :
result: inactive

query: Call for entry c1ccc(SC2CCSc3ccccc3C2Sc2ccccc2)cc1 (stereo not given) :
result: inactive

query: Call for entry `COc1ccc(-n2c3c(c4cc(O)ccc42)Cc2ccccc2C3=O)cc1` :
result: inactive

query: Call for entry CCOC(=O)C(Cc1ccccc1)NC(=O)c1ccc(/N=N/N(C)C)cc1 (stereo not given) :
result: inactive

query: Call for entry `CC1=C(C(=O)OC(C)(C)C)C(c2ccc([N+](=O)[O-])cc2)C(C(=O)OC(C)(C)C)=C(C)N1` :
result: inactive

query: Call for entry COc1ccc2c(c1)C(O)(C(F)(F)F)c1cc(C(=O)C(F)(F)F)c3ccccc3c1N2 (stereo not given) :
result: inactive

query: Call for entry `COc1ccc(/C=C/c2cc(OC)cc(OC)c2)cc1` :
result: inactive

---

# Test system: UACC-257
# TEST DETAILS: NCI tumour cell line growth inhibition, 48 h
Calls of active or inactive are those of the source. Rule as the data show it: active = GI50 up to about 1.1 µM and inactive = higher.
MEASURED PROPERTY: GI50

query: What value of GI50 on UACC-257 does `NC1=Nc2ccccc2Sc2cccc(F)c21` have?
result: 46.3 µM (inactive)

query: What value of GI50 on UACC-257 does `CC1=C(C(=O)OC(C)(C)C)C(c2ccc([N+](=O)[O-])cc2)C(C(=O)OC(C)(C)C)=C(C)N1` have?
result: 18.8 µM (inactive)

query: What value of GI50 on UACC-257 does `COC(CN1C=C(Sc2ccccc2)CC1)OC` have?
result: 34.8 µM (inactive)

query: What value of GI50 on UACC-257 does `Cc1ccc(NC(=O)CC(=O)n2nc(-c3ccccc3)c(/N=N/c3ccccc3Cl)c2-c2ccccc2)cc1` have?
result: > 10 µM (inactive)

query: What value of GI50 on UACC-257 does `C[C@@]12CCC3C1C=C1C(=O)c4cc(O)ccc4C(=O)[C@]1(O2)[C@@]3(C)C=O` have?
result: 9.16 µM (inactive)

query: What value of GI50 on UACC-257 does `COc1ccc(/C=C2\N=C(SC)N(C)C2=O)cc1` have?
result: > 100 µM (inactive)

query: What value of GI50 on UACC-257 does `O=C(CCc1nnc(S)[nH]1)Nc1ccc(Cl)c(Cl)c1` have?
result: 34.8 µM (inactive)

---

# Tested on: SNB-19
# TEST DETAILS: NCI tumour cell line growth inhibition, 48 h
Calls of active or inactive are those of the source. Cut-off read from the data, not from the text of the source: active = GI50 up to about 1.1 µM and inactive = higher. Where a SMILES comes first, the peptide text is derived from it. The star is where a group is joined. Boc = CC(C)(C)OC(=O)*; OBn = c1ccc(CO*)cc1
We begin with a simple list: items and their reported GI50.

// solved cases for GI50 follow
[[record]]
compound = "COc1cccc2c1C(=O)c1c(O)c3c(c(O)c1C2=O)C[C@@](O)(C(C)=O)CC3OC1CC(OC2CC(N)C(O)C(C)O2)C(O)C(C)O1 (stereo partly specified)"
target_of_assay = "SNB-19"
measured_property = "GI50"
endpoint_value = "21.1 µM (inactive)"

[[record]]
compound = "CCN(CC)CC(=O)Nc1ccc2c(c1)C(=O)c1ccc(NC(=O)CN(CC)CC)cc1C2=O"
target_of_assay = "SNB-19"
measured_property = "GI50"
endpoint_value = "23.8 µM (inactive)"

[[record]]
compound = "CC(C)CC(NC(=O)C(Cc1ccccc1)NC(=O)C(Cc1ccccc1)NC(=O)OC(C)(C)C)C(=O)OCc1ccccc1 (stereo not drawn) (Boc-Phe-Phe-Leu-OBn; configuration not given here)"
target_of_assay = "SNB-19"
measured_property = "GI50"
endpoint_value = "> 100 µM (inactive)"

[[record]]
compound = "CCOC(=O)C12CCCC1(O)N(NC(=O)c1ccccc1)C(C)=C2C(=O)OC (stereo unspecified)"
target_of_assay = "SNB-19"
measured_property = "GI50"
endpoint_value = "> 100 µM (inactive)"


query: Value lookup for GI50; key = `Cc1ccc(-c2cc(-c3ccco3)c(C#N)c(=S)[nH]2)cc1`
result: 32.1 µM (inactive)

query: Value lookup for GI50; key = CC1OC2(CC(OCc3ccccc3)C1OCc1ccccc1)OCCO2 (stereo unspecified)
result: 44.3 µM (inactive)

query: Value lookup for GI50; key = `Nc1nnc(-c2ccco2)c(-c2ccco2)n1`
result: > 100 µM (inactive)

query: Value lookup for GI50; key = CN1NC(c2ccccc2)=C(C#N)C(=O)CC1c1ccc(Br)cc1 (stereo unspecified)
result: 28.8 µM (inactive)

query: Value lookup for GI50; key = CC(CCCC1SCC2NC(=O)NC21)C(=O)O (stereo unspecified)
result: > 100 µM (inactive)

query: Value lookup for GI50; key = COc1nc(NC2OC(COC(C)=O)C(OC(C)=O)C(OC(C)=O)C2OC(C)=O)c2c(OC(C)=O)c(C)c(=O)oc2n1 (stereo unspecified)
result: > 100 µM (inactive)
